Cited source: the supplement of paper PMC6555819

test system: RARg homodimer (NR concentration 270 nM); assay: PBM binding z-score (relative to random genomic background probes); higher = stronger binding; sequences stand for … in GC…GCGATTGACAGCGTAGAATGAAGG
What PBM binding z-score was measured for each of the following?

# RECORD_SEQUENCE, RESULT
measured = [
    ("TAGCCTAGGTCATTCAGGGGCCAGTCTAGAAAGC", 4.33),
    ("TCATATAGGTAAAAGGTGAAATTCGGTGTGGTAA", 0.738),
    ("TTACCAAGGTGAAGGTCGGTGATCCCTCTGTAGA", 0.916),
    ("TAGCCTAGGTCAGATGGGGCCAGTATACGCTATA", 3.65),
    ("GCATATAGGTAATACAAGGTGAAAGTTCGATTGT", 0.602),
]

Now look at this one.
Qu. Fill: PBM binding z-score (RARg homodimer (NR concentration 270 nM)) for this sequence `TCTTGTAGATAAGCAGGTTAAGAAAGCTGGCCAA`
Ans. -0.231

----------
tested on: PXR homodimer (NR concentration 270 nM); experiment: PBM binding z-score (relative to random genomic background probes); higher = stronger binding; sequences stand for … in GC…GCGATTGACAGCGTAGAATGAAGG
What PBM binding z-score was measured for each of the following?
Give bare numbers.

Consider the following illustrative entries.
# RECORD_SEQUENCE, NUMERIC_READOUT
rows = [
    ("ACTTACGGGTCAACGAGGTTACAGCACGCGTATA", 2.74),
    ("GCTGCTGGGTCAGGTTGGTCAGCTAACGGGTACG", -0.0848),
    ("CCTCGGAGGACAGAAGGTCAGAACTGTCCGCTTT", 0.0205),
    ("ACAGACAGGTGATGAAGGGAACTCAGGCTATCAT", 0.482),
    ("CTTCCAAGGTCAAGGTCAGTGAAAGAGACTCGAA", 1.05),
]

Qu. Fill: PBM binding z-score (PXR homodimer (NR concentration 270 nM)) for this sequence `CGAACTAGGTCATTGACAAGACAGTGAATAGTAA`
Ans. 0.00701

----------
What PBM binding z-score was measured for each of the following?
test system: THRa:RXRa (NR concentration 90 nM, RXRa partner concentration 90 nM); test: PBM binding z-score (relative to random genomic background probes); higher = stronger binding; sequences stand for … in GC…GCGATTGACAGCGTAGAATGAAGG
Numbers only.

# RECORD_SEQUENCE, PBM binding z-score
measured = [
    ("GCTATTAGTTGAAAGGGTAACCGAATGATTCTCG", 0.527),
    ("CCTGCTAGGTCACGGTCAGCTAATCTACAGTATG", 3.35),
    ("TAGCCTAGGTCATGGGGCAGTATACCACGCGAAC", 3.23),
]

Hi! Can you tell me PBM binding z-score for each of these sequences?
1. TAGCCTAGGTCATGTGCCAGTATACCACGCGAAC
2. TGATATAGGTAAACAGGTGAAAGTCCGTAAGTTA

Ans.
2.91
0.68

Hi! Can you tell me PBM binding z-score for each of these sequences?
1. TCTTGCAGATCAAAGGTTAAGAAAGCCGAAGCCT
2. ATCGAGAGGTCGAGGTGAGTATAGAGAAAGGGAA

Ans.
1.26
2.76
